Cited source: patent US10428024B2

- assayed target: human PDHK2 (12-407) (Homo sapiens (Human), UniProt Q15119)
Hi! Just check whether Kd is below 40 nM. Below gives MET, equal or above gives NOT MET.

Consider Cc1ccc(N(C)C(=O)[C@@H]2CCN(C(=O)[C@@](C)(O)C(F)(F)F)C[C@@H]2C)c(F)c1 [Compound A14] . Does its Kd lie strictly below 40 nM?
NOT MET

Consider CN(C(=O)c1ccc(Cl)cc1)C1CCN(C(=O)[C@@](C)(O)C(F)(F)F)CC1 [Compound A16] . Does its Kd lie strictly below 40 nM?
NOT MET

Consider C[C@@H]1CN(C(=O)[C@@](C)(O)C(F)(F)F)CC[C@@H]1N(C)C(=O)c1ccc(Cl)cc1 [Compound A21] . Does its Kd lie strictly below 40 nM?
NOT MET

Consider C[C@@H]1CN(C(=O)[C@@](C)(O)C(F)(F)F)CC[C@@H]1N(C)C(=O)c1ccc(F)cn1 [Compound A53] . Does its Kd lie strictly below 40 nM?
NOT MET

Consider CN(C(=O)C1CCN(C(=O)[C@@](C)(O)C(F)(F)F)CC1)c1ccc(C(F)(F)F)cc1Cl [Compound A3] . Does its Kd lie strictly below 40 nM?
MET

Consider COc1ccc(C(=O)N(C)[C@H]2CCN(C(=O)[C@@](C)(O)C(F)(F)F)C[C@H]2C)cc1 [Compound A35] . Does its Kd lie strictly below 40 nM?
MET

Consider Cc1ccc(N(C)C(=O)[C@H]2CCN(C(=O)[C@@](C)(O)C(F)(F)F)C[C@H]2C)cc1 [Compound A7] . Does its Kd lie strictly below 40 nM?
MET

* * *

System: PDHK2 (Homo sapiens (Human), UniProt Q15119) | Read-out: pIC50
Keep it numeric: pIC50 is minus log10 of the concentration in mol/L.

Recorded result, C[C@@H]1CN(C(=O)[C@@](C)(O)C(F)(F)F)CC[C@@H]1N(C)C(=O)c1ccccc1 [Compound A32] , pIC50: 6.15

Recorded result, C[C@@H]1CN(C(=O)[C@@](C)(O)C(F)(F)F)CC[C@@H]1N(C)C(=O)c1ccc(Cl)cc1 [Compound A21] , pIC50: 6.59

Recorded result, CC(C)N(C(=O)c1ccc(C#N)cc1)C1CCN(C(=O)[C@@](C)(O)C(F)(F)F)CC1 [Compound A67] , pIC50: 5.80

Recorded result, C[C@@H]1CN(C(=O)[C@@](C)(O)C(F)(F)F)CC[C@@H]1N(C)C(=O)c1ccc(Cl)cc1F [Compound A59] , pIC50: 7.01

Recorded result, C[C@@H]1CN(C(=O)[C@@](C)(O)C(F)(F)F)CC[C@@H]1N(C)C(=O)c1ccc(F)cc1 [Compound A29] , pIC50: 6.60

Recorded result, C[C@H]1CN(C(=O)[C@@](C)(O)C(F)(F)F)CC[C@H]1N(C)C(=O)c1ccc(Cl)cc1F [Compound A60] , pIC50: 5.41

Recorded result, Cc1ccc(N(C)C(=O)[C@H]2CCN(C(=O)[C@@](C)(O)C(F)(F)F)C[C@H]2C)c(F)c1 [Compound A13] , pIC50: 6.92

Recorded result, C[C@H]1CN(C(=O)[C@@](C)(O)C(F)(F)F)CC[C@H]1N(C)C(=O)c1ccc(C#N)cc1 [Compound A45] , pIC50: 4.57

Recorded result, Cc1ccc(C(=O)N(C)[C@H]2CCN(C(=O)[C@@](C)(O)C(F)(F)F)C[C@H]2C)c(F)c1 [Compound A27] , pIC50: 6.52

Recorded result, C[C@@H]1CN(C(=O)[C@@](C)(O)C(F)(F)F)CC[C@@H]1N(C)C(=O)c1ccc(C(F)(F)F)cc1 [Compound A62] , pIC50: 6.54

Recorded result, Cc1ccc(N(C)C(=O)C2CCN(C(=O)[C@@](C)(O)C(F)(F)F)CC2)cc1 [Compound A1] , pIC50: 5.96

Recorded result, C[C@@H]1CN(C(=O)[C@@](C)(O)C(F)(F)F)CC[C@@H]1C(=O)N(C)c1ccc(Cl)cc1 [Compound A10] , pIC50: 6.96

Recorded result, C[C@H]1CN(C(=O)[C@@](C)(O)C(F)(F)F)CC[C@H]1N(C)C(=O)c1ccccc1 [Compound A33] , pIC50: 5.47

Recorded result, Cc1ccc(C(=O)N(C)C2CCN(C(=O)[C@@](C)(O)C(F)(F)F)CC2)c(F)c1 [Compound A18] , pIC50: 6.59

Recorded result, C[C@@H]1CN(C(=O)[C@@](C)(O)C(F)(F)F)CC[C@@H]1N(C)C(=O)c1cnn(C)c1 [Compound A56] , pIC50: 6.64
